Give Giant foxtail plant response rating for every item shown.
System: giant foxtail
test-details: Test B pre/postemergence giant foxtail
Format: in vivo, Setaria faberii
run-conditions: Rate 125 g/ha, Postemergence; scale of 0 to 10 where 0 is no effect and 10 is complete control
Lab note: jot down the number only; don't add units.

Identify measured Giant foxtail plant response rating corresponding to `Cc1cccc(C)c1-n1c(=O)on(C(=O)N(c2ccc(Cl)cc2Cl)C2CCC2)c1=O`
0

Identify measured Giant foxtail plant response rating corresponding to CC(C)N(C(=O)n1oc(=O)n(C2CCCCO2)c1=O)c1ccc(F)cc1 (stereo not drawn)
0

Identify measured Giant foxtail plant response rating corresponding to `CCN(CC)C(=O)n1oc(=O)n(C2CC2)c1=O`
0

Identify measured Giant foxtail plant response rating corresponding to `CC(C)N(C(=O)n1oc(=O)n(CCCN(C)C)c1=O)c1ccc(F)cc1`
0

Identify measured Giant foxtail plant response rating corresponding to `CC(C)N(C(=O)n1oc(=O)n(CCCF)c1=O)c1ccc(F)cc1`
8

Identify measured Giant foxtail plant response rating corresponding to C=CCn1c(=O)on(C(=O)N(c2ccc(F)cc2)C(C)C(=O)OCC)c1=O (stereo not drawn)
0

###

System: surinam grass
test-details: Test B pre/postemergence surinam grass
Assay type: in vivo, Brachiaria decumbens
run-conditions: Postemergence, Rate 62 g/ha; scale 0 to 10, 0 is no effect, 10 is complete control
experimental-endpoint: Plant response rating, B. signalgrass

Identify measured Plant response rating, B. signalgrass corresponding to CC(C)N(C(=O)n1oc(=O)n(CC2=NOCCC2)c1=O)c1ccc(F)cc1 [Compound 601]
0

Identify measured Plant response rating, B. signalgrass corresponding to CC(C)N(C(=O)n1oc(=O)n(CC2CCCCO2)c1=O)c1ccc(F)cc1 (centres unmarked) [Compound 624]
4

Identify measured Plant response rating, B. signalgrass corresponding to C#CC(C)n1c(=O)on(C(=O)N(c2ccc(F)cc2)C(C)C)c1=O (centres unmarked) [Compound 763]
0

Identify measured Plant response rating, B. signalgrass corresponding to Cc1nc(C(C)n2c(=O)on(C(=O)N(c3ccccc3)C(C)C)c2=O)sc1C (centres unmarked) [Compound 756]
0

Identify measured Plant response rating, B. signalgrass corresponding to CC(C)N(C(=O)n1oc(=O)n(CC(C)[N+](=O)[O-])c1=O)c1ccccc1 (centres unmarked) [Compound 604]
0

###

Tested on: soybean
test-details: Test B pre/postemergence soybean
Assay type: in vivo, Glycine max
run-conditions: Preemergence, Rate 250 g/ha; scale 0 to 10 (0 no effect, 10 complete control)
experimental-endpoint: Plant response rating, Soybean
Lab note: jot down the number only; don't add units.

Identify measured Plant response rating, Soybean corresponding to `CC(C)N(C(=O)n1oc(=O)n(CC(=O)C2CCC2)c1=O)c1ccccc1`
0

Identify measured Plant response rating, Soybean corresponding to CC(C)N(C(=O)n1oc(=O)n(CC2CCCCO2)c1=O)c1ccc(F)cc1 (stereo not shown)
3

Identify measured Plant response rating, Soybean corresponding to CCOP(=O)(OCC)C(C)n1c(=O)on(C(=O)N(c2ccc(Cl)cc2)C(C)C)c1=O (stereo not shown)
0

Identify measured Plant response rating, Soybean corresponding to `CC(C)N(C(=O)n1oc(=O)n(CCC(=O)N(C)C)c1=O)c1ccccc1`
0

###

Give Blackgrass plant response rating for every item shown.
System: blackgrass
test-details: Test B pre/postemergence blackgrass
Type: in vivo, Alopecurus myosuroides
run-conditions: Preemergence, Rate 125 g/ha; scale of 0 to 10 where 0 is no effect and 10 is complete control

Identify measured Blackgrass plant response rating corresponding to CC(C)N(C(=O)n1oc(=O)n(CC2CCCCO2)c1=O)c1ccc(F)cc1 (stereo not shown)
8

Identify measured Blackgrass plant response rating corresponding to CCc1nc(C)c(C(C)n2c(=O)on(C(=O)N(c3ccc(Cl)cc3)C(C)C)c2=O)s1 (stereo not shown)
0

Identify measured Blackgrass plant response rating corresponding to CC(=O)OCC(CCl)n1c(=O)on(C(=O)N(c2ccc(F)cc2)C(C)C)c1=O (stereo not shown)
0

Identify measured Blackgrass plant response rating corresponding to `CCOC(Cn1c(=O)on(C(=O)N(c2ccccc2)C(C)C)c1=O)OCC`
4

###

Test system: crabgrass
test-details: Test B pre/postemergence crabgrass
Assay type: in vivo, Digitaria sanguinalis
run-conditions: Rate 250 g/ha; Postemergence
experimental-endpoint: Plant response rating (0 to 10; 0 is no effect, 10 is complete control), Crabgrass
Lab note: jot down the number only; don't add units.

Identify measured Plant response rating (0 to 10; 0 is no effect, 10 is complete control), Crabgrass corresponding to CC(C)N(C(=O)n1oc(=O)n(CC(=O)OC(C)(C)C)c1=O)c1ccc(F)cc1 [Compound 265]
2

Identify measured Plant response rating (0 to 10; 0 is no effect, 10 is complete control), Crabgrass corresponding to CC(C)N(C(=O)n1oc(=O)n(C(C)C(=O)c2ccccc2)c1=O)c1ccc(F)cc1 (stereo not shown) [Compound 260]
0

Identify measured Plant response rating (0 to 10; 0 is no effect, 10 is complete control), Crabgrass corresponding to Cc1ccccc1-n1c(=O)on(C(=O)N(c2ccc(N(C)C)cc2)C(C)C)c1=O [Compound 237]
0

Identify measured Plant response rating (0 to 10; 0 is no effect, 10 is complete control), Crabgrass corresponding to CC(C)N(C(=O)n1oc(=O)n(CC2CC2)c1=O)c1ccc(F)cc1 [Compound 251]
6

###

Give B. signalgrass plant response rating for every item shown.
Tested on: surinam grass
test-details: Test B pre/postemergence surinam grass
Type: in vivo, Brachiaria decumbens
run-conditions: Preemergence, Rate 500 g/ha; scale of 0 to 10 where 0 is no effect and 10 is complete control
Lab note: jot down the number only; don't add units.

Give the observed B. signalgrass plant response rating of `Cc1nsc(Cl)c1Cn1c(=O)on(C(=O)N(c2ccc(F)cc2)C(C)C)c1=O` for surinam grass.
2

Give the observed B. signalgrass plant response rating of CC(C)N(C(=O)n1oc(=O)n(C2CCCCO2)c1=O)c1ccc(F)cc1 (stereo not shown) for surinam grass.
0

Give the observed B. signalgrass plant response rating of `CC(Cl)=CCn1c(=O)on(C(=O)N(c2ccccc2)C(C)C)c1=O` for surinam grass.
10

Give the observed B. signalgrass plant response rating of `CC(C)N(C(=O)n1oc(=O)n(C2CCCCCC2)c1=O)c1ccc(Cl)cc1` for surinam grass.
0

Give the observed B. signalgrass plant response rating of CC(C)C(C)n1c(=O)on(C(=O)N(c2ccc(F)cc2F)C(C)C)c1=O (stereo not shown) for surinam grass.
5

Give the observed B. signalgrass plant response rating of CCC(C)n1c(=O)on(C(=O)N(c2ccc(F)cc2)C(C)C)c1=O (stereo not shown) for surinam grass.
9

Give the observed B. signalgrass plant response rating of `COC(=O)CCCn1c(=O)on(C(=O)N(c2ccccc2)C(C)C)c1=O` for surinam grass.
0

Give the observed B. signalgrass plant response rating of `CCOCn1c(=O)on(C(=O)N(c2ccccc2)C(C)C)c1=O` for surinam grass.
10

Give the observed B. signalgrass plant response rating of CC(C)C(C)n1c(=O)on(C(=O)N(c2ccc(F)cc2)C(C)C)c1=O (stereo not shown) for surinam grass.
9

Give the observed B. signalgrass plant response rating of `CC(C)N(C(=O)n1oc(=O)n(CC2=NOCCC2)c1=O)c1ccc(F)cc1` for surinam grass.
8

Give the observed B. signalgrass plant response rating of `CC(C)N(C(=O)n1oc(=O)n(-c2ccc3ccccc3c2)c1=O)c1ccc(F)cc1F` for surinam grass.
0

Give the observed B. signalgrass plant response rating of `CC(C)N(C(=O)n1oc(=O)n(C2CCC2)c1=O)c1ccc(Cl)cc1` for surinam grass.
4

Give the observed B. signalgrass plant response rating of `CC(C)N(C(=O)n1oc(=O)n(CC2CC2)c1=O)c1ccccc1` for surinam grass.
9

###

Test system: velvetleaf
test-details: Test B pre/postemergence velvetleaf
Type: in vivo, Abutilon theophrasti
run-conditions: Preemergence, Rate 250 g/ha; scale 0 to 10, 0 is no effect, 10 is complete control
experimental-endpoint: Velvetleaf plant response rating
Lab note: jot down the number only; don't add units.

Give the observed Velvetleaf plant response rating of `COc1nc(OC)nc(N(C(=O)n2oc(=O)n(C(C)C)c2=O)C(C)C)n1` for velvetleaf.
0

Give the observed Velvetleaf plant response rating of CC(C)N(C(=O)n1oc(=O)n(C(C)C2CC2)c1=O)c1ccc(F)cc1 (stereo not drawn) for velvetleaf.
5

Give the observed Velvetleaf plant response rating of `CC(C)N(C(=O)n1oc(=O)n(C2CCOCC2)c1=O)c1ccccc1` for velvetleaf.
6

Give the observed Velvetleaf plant response rating of `CC(C)N(C(=O)n1oc(=O)n(C2CCCCCC2)c1=O)C1=CCCCC1` for velvetleaf.
0

Give the observed Velvetleaf plant response rating of COC(=O)C(C)n1c(=O)on(C(=O)N(c2ccc(F)cc2F)C(C)C)c1=O (stereo not drawn) for velvetleaf.
0

Give the observed Velvetleaf plant response rating of COC(OC)C(C)n1c(=O)on(C(=O)N(c2ccc(F)cc2F)C(C)C)c1=O (stereo not drawn) for velvetleaf.
3
